# Assay Details: Distribution coefficient, log D at pH 7.4
# Assay type: physicochemical
# Condition Label: octanol/water
Readout Name: logD
API doc: respond with a numeric literal and nothing else, no unit.

What logD value was documented for this compound, CCOc1cc(CN2CCC(Nc3nc4ccccc4o3)CC2)ccc1OC ? 2.92

* * *

# Assay Details: Passive membrane permeability by PAMPA
# Assay type: ADME
# Condition Label: read-out: permeability
Readout Name: Papp (×10⁻⁶ cm/s)
Reply numerically in ×10⁻⁶ cm/s, unit not repeated.

What Papp value was documented for this molecule, CCOc1cc(CN2CCC(Nc3nc4ccccc4o3)CC2)ccc1OC ? 4.44

* * *

# Measured On: Somatostatin receptor type 5 (Homo sapiens, UniProt P35346)
# Sequence (P35346 whole entry): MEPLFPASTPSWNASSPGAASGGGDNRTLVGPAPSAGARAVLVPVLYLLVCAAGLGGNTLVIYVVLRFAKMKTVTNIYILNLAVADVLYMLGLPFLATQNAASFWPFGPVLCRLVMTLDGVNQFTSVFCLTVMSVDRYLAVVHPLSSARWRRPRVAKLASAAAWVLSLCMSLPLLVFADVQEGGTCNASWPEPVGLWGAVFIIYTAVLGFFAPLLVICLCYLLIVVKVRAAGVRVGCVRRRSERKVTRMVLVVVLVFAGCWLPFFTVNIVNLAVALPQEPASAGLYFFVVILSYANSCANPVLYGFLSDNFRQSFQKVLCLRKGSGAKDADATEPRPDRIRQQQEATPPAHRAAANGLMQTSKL
# Assay Details: Antagonist activity at human SST5R expressed in CHO cells assessed as reversal of somatostatin-14 induced cAMP response
# Format: functional, cell-based
Readout Name: pIC50
// pIC50 here means minus log10 of the molar concentration (mol/L)

What pIC50 value was documented for this compound, CCOc1cc(CN2CCC(Nc3nc4ccccc4o3)CC2)ccc1OC ? 6.13

* * *

# Measured On: Somatostatin receptor type 2 (Homo sapiens, UniProt P30874)
# Sequence (P30874 whole entry): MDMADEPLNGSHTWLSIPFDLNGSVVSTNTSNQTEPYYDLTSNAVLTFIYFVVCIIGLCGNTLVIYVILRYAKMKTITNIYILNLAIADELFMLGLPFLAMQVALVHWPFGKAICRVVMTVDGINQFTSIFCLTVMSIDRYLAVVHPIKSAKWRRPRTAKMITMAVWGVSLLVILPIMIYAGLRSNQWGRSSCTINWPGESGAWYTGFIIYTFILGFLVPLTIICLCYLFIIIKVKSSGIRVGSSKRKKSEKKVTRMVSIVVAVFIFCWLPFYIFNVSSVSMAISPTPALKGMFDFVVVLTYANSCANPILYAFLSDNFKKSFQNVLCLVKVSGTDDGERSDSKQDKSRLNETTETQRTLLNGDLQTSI
pKi: −log10 of the molar value.
Readout Name: pKi

What pKi value was documented for this compound, CCOc1cc(CN2CCC(Nc3nc4cc(S(N)(=O)=O)ccc4o3)CC2)cc(OCC)c1N ? < 5.00

* * *

# Measured On: Somatostatin receptor type 3 (Homo sapiens)
# Sequence (P32745 whole entry): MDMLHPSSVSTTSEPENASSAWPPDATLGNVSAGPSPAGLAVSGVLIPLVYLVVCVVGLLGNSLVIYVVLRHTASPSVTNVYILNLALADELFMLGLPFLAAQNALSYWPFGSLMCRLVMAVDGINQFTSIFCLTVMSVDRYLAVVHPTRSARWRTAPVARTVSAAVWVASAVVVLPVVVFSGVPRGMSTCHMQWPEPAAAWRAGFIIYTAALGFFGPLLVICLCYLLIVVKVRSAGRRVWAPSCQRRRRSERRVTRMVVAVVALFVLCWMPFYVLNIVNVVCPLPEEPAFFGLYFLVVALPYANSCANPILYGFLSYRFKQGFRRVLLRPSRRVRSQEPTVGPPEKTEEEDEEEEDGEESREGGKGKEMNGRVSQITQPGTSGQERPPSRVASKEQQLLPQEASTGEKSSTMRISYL
pKi: −log10 of the molar value.
Readout Name: pKi

What pKi value was documented for this molecule, CCOc1cc(CN2CCC(Nc3nc4cc(S(N)(=O)=O)ccc4o3)CC2)cc(OCC)c1N ? < 5.00

* * *

Below: a set of entries, each annotated with reported pKi.
# Measured On: Somatostatin receptor type 5 (Homo sapiens)
# Assay Details: Displacement of [125I]11-Tyr somatostatin-14 from human SST5R expressed in CHO cells
# Format: cell-based
// pKi here means minus log10 of the molar concentration (mol/L)

* CCOc1cc(CN2CCC(Nc3nc4ccccc4o3)CC2)ccc1Cl | 6.95
* CCOc1cc(CN2CCC(Nc3nc4ccccc4o3)CC2)ccc1F | 6.71
* Fc1ccc(Cn2c(NC3CCN(Cc4ccc5c(c4)CCO5)CC3)nc3ccccc32)cc1 | 5.79
* CCOc1cc(CN2CCC(Nc3nc4ccccc4o3)CC2)ccc1OC | 6.92
* Fc1ccc(Cn2c(NC3CCN(CCc4ccccc4)CC3)nc3ccccc32)cc1 | 5.30

// next entry
What pKi value was documented for this molecule, COc1ccc(CN2CCC(Nc3nc4ccccc4o3)CC2)cc1OC1CCCC1 ? 7.08

* * *

Below: a set of entries, each annotated with reported Ki.
# Measured On: Somatostatin receptor type 5 (Homo sapiens, UniProt P35346)
Reply numerically in µM, unit not repeated.

Would you please look over these solved cases?
* CCOc1cc(CN2CCC(Nc3nc4cc(S(N)(=O)=O)ccc4o3)CC2)cc(OCC)c1N | 0.013
* COc1ccc(CCN2CCC(Nc3nc4ccccc4n3Cc3ccc(F)cc3)CC2)cc1 | 4.07
* Fc1ccc(Cn2c(NC3CCN(Cc4ccccc4)CC3)nc3ccccc32)cc1 | 6.12

// next entry
What Ki value was documented for this compound, CCOc1cc(CN2CCC(Nc3nc4cc(S(N)(=O)=O)ccc4o3)CC2)ccc1OC ? 0.185

* * *

# Measured On: UniProtKB Q12809
# Sequence (Q12809 whole entry): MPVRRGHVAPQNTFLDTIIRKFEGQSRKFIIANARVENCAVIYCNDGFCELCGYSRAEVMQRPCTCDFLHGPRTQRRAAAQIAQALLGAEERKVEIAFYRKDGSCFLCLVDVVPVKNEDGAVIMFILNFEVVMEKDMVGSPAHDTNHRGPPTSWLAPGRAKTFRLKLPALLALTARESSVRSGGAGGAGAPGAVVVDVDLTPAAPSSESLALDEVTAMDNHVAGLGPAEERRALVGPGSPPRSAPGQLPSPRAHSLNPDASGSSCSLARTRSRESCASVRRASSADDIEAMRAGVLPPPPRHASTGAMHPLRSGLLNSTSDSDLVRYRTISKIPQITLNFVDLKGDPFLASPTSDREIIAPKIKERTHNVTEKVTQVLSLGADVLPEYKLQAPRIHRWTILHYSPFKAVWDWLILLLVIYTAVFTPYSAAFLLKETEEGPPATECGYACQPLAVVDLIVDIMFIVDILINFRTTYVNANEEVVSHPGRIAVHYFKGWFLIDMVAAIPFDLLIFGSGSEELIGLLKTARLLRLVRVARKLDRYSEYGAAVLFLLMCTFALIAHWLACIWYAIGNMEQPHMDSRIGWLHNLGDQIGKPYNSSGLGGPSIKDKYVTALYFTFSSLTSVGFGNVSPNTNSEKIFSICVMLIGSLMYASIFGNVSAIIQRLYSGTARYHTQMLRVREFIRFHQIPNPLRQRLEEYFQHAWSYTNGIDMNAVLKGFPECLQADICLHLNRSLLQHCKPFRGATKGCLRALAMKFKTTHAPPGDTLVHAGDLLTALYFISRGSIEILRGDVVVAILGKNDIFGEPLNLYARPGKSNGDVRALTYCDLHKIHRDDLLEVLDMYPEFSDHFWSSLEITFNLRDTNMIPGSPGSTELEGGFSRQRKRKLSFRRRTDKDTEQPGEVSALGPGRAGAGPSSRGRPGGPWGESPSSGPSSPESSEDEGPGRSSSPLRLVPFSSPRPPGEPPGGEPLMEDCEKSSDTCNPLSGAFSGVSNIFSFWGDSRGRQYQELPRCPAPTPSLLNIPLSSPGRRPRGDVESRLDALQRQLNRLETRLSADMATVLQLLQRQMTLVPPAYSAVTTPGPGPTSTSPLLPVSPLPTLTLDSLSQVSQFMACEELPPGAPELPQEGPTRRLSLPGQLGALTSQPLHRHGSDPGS
Readout Name: IC50 (µM)
Reply numerically in µM, unit not repeated.

What IC50 value was documented for this compound, CCOc1cc(CN2CCC(Nc3nc4cc(S(N)(=O)=O)ccc4o3)CC2)ccc1OC ? 3.5

Values compiled from ChEMBL document CHEMBL1138333.
